FACS reading values, listed per item
# TEST TARGET: T1, Claudin 18.2 (CLDN18.2), expressed on CHOS-CLDN 18.2 / HEK293-CLDN 18.2 / HCC827-CLDN 18.2 cells (human, UniProt P56856-2 1-261)
# T1 construct: whole, on cells; The species is not repeated for the CHOS-CLDN 18.2 cells; also called claudin-18A2
# TEST: FACS, CHOS-CLDN18.2 cells, 20 µg/ml
// no unit, no text: just the number

- BINDER: "QP14581453 (antibody, human IgG1, kappa, V domains shown, Humanized from QP201202) VH: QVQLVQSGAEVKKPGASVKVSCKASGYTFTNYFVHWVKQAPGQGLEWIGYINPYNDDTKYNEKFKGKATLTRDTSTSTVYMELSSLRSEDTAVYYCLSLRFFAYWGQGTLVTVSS VL: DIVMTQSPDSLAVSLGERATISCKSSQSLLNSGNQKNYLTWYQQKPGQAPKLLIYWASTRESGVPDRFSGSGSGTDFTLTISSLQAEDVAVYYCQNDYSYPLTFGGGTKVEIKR"
  FACS reading: 104000
- BINDER: "QP14561454 (antibody, human IgG1, kappa, V domains shown, Humanized from QP201202) VH: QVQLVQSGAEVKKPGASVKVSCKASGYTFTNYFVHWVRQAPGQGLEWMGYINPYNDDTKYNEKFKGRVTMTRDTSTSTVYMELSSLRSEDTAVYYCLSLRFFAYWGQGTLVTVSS VL: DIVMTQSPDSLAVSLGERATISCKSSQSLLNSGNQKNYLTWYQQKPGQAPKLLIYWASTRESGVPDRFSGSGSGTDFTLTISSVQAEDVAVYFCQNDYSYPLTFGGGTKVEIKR"
  FACS reading: 146000

Could you now consider this next binder?
Exercise: Using the record for QP024025 (antibody, human IgG1, V domains shown, also called IMAB362; 175D10(IMAB362)) VH: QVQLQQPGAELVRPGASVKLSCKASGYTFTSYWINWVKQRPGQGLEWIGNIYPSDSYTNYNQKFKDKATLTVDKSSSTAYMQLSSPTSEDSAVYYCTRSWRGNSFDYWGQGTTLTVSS VL: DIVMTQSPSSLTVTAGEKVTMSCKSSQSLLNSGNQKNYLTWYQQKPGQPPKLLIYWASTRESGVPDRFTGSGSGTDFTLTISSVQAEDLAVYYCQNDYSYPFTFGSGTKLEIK , state its measured FACS reading.
Solution: 72300
